- TARGET DESC: T1, AFP158/HLA-A*02:01 complex (human)
- T1 construct: flowed as analyte in SPR
- ASSAY TEXT: SPR, crude scFv captured, pMHC analyte;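 also: Peptide-MHC complex at several concentrations passed over captured scFv, association then buffer-driven dissociation, on- and off-rates fitted from the curves and KD estimated from them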
koff: recorded values

- BINDER: "AS170036 VL1VH1-VLH98A (scFv) scFv: QSALTQPRSVSGSPGQSVTISCAGTSSDVGSENYVSWYQQHPGKAPKLMIYQVNKRASGVPDRFSGSKSGNTASLTISGLQAEDEADYYCASYRSSDANIVFGGGTKLTVLGGGGSGGGGSGGGGSEVQLVESGGGLVQPGGSLRLSCAASGFTFSSYAMSWVRQAPGKGLEWVSTINSGTGSPYYADSVKGRFTISRDNSKNTLYLQMNSLRAEDTAVYYCAKNFFDGSWFLGPPAMDYWGQGTLVTVSSHHHHHH"
  UNITS LABEL: "s⁻¹"
  koff: 0.027
- BINDER: "AS170036 VL1VH1-VLH98I (scFv) scFv: QSALTQPRSVSGSPGQSVTISCAGTSSDVGSENYVSWYQQHPGKAPKLMIYQVNKRASGVPDRFSGSKSGNTASLTISGLQAEDEADYYCASYRSSDINIVFGGGTKLTVLGGGGSGGGGSGGGGSEVQLVESGGGLVQPGGSLRLSCAASGFTFSSYAMSWVRQAPGKGLEWVSTINSGTGSPYYADSVKGRFTISRDNSKNTLYLQMNSLRAEDTAVYYCAKNFFDGSWFLGPPAMDYWGQGTLVTVSSHHHHHH"
  UNITS LABEL: "s⁻¹"
  koff: 0.018
- BINDER: "AS170036 VL1VH1-VHS57R (scFv) scFv: QSALTQPRSVSGSPGQSVTISCAGTSSDVGSENYVSWYQQHPGKAPKLMIYQVNKRASGVPDRFSGSKSGNTASLTISGLQAEDEADYYCASYRSSDHNIVFGGGTKLTVLGGGGSGGGGSGGGGSEVQLVESGGGLVQPGGSLRLSCAASGFTFSSYAMSWVRQAPGKGLEWVSTINSGTGRPYYADSVKGRFTISRDNSKNTLYLQMNSLRAEDTAVYYCAKNFFDGSWFLGPPAMDYWGQGTLVTVSSHHHHHH"
  UNITS LABEL: "s⁻¹"
  koff: 0.017
